# assayed_system: α1d-AR (Homo sapiens, UniProt P25100)
# Construct: expressed in transfected cells; host or cells: COS-7 cells (membranes)
# Sequence (P25100 whole entry): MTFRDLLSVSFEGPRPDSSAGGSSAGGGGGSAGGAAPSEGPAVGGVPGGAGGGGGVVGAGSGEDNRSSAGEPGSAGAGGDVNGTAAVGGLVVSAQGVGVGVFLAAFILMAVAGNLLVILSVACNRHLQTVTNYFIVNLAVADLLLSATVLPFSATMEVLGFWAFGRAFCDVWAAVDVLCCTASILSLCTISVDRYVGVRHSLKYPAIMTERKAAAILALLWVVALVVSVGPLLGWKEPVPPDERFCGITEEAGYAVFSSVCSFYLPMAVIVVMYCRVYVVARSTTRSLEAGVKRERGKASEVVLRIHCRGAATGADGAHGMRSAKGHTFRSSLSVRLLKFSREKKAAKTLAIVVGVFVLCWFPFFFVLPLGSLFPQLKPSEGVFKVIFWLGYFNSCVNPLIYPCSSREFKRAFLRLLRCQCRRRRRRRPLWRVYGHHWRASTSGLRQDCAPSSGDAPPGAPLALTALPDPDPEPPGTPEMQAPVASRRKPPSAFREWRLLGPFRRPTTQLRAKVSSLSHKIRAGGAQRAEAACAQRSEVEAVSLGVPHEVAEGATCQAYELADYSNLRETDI
# assay_overview: α1-Adrenergic receptor radio-ligand binding assay, α1d subtype
# condition_details: 125I-HEAT, membranes of COS-7 cells transfected with α1d subtype, rt 1 hr; read-out: Receptor Binding, Ki α1d-AR
# Procedure: Membranes were prepared from COS-7 cells (African Green monkey kidney SV40-transformed cells) that had been transfected with one of the three α1-AR subtypes (Genbank accession number for the α1a subtype: AF013261; Genbank accession number for the α1b subtype: NM000679; Genbank accession number for the α1d subtype: NM000678) using the following method: COS cells from ten 100 mm tissue culture plates were scraped into a 5 mL volume of TE (a mixture of 50 mM Tris-HCl, 5 mM EDTA, pH 7.4). […]
pKi: −log10 of the molar value.
measured_quantity: pKi

- O=S(=O)(N[C@H]1CC[C@@H](N2CCC(c3ccccc3OC3CC3)CC2)CC1)c1cc(Cl)ccc1F: 8.68
- O=S(=O)(N[C@H]1CC[C@H](N2CCC(c3ccccc3OCC(F)(F)F)CC2)CC1)c1cc(Cl)ccc1F: 7.36
- O=S(=O)(N[C@H]1CC[C@H](N2CCC(c3ccccc3OCC(F)(F)F)CC2)CC1)c1cccc(OC(F)F)c1: 7.15
- COc1ccc(S(=O)(=O)N[C@H]2CC[C@@H](N3CCC(c4ccccc4OCC(F)F)CC3)CC2)cc1OC: 8.39
- COc1ccc(Cl)cc1S(=O)(=O)N[C@H]1CC[C@H](N2CCC(c3ccccc3OC3CC3)CC2)CC1: 7.33
- O=S(=O)(N[C@H]1CC[C@@H](N2CCC(c3ccccc3OC3CC3)CC2)CC1)c1ccc(Cl)cc1Cl: 8.21
- O=S(=O)(N[C@H]1CC[C@@H](N2CCC(c3ccccc3OCC(F)(F)F)CC2)CC1)c1cc(Cl)ccc1F: 9.01
- COc1ccc(Cl)cc1S(=O)(=O)N[C@H]1CC[C@@H](N2CCC(c3ccccc3OC3CC3)CC2)CC1: 8.59
- COc1ccc(S(=O)(=O)N[C@H]2CC[C@@H](N3CCC(c4cc(F)ccc4OC(C)C)CC3)CC2)cc1OC: 8.80
- CC(C)Oc1ccccc1C1CCN([C@H]2CC[C@@H](NS(=O)(=O)c3ccc(F)c(F)c3)CC2)CC1: 8.14
- O=S(=O)(N[C@H]1CC[C@H](N2CCC(c3ccccc3OCC(F)(F)F)CC2)CC1)c1ccc(OC(F)F)cc1: 7.07
- COc1ccc(S(=O)(=O)N[C@H]2CC[C@H](N3CCC(c4ccccc4OC(C)C)CC3)CC2)cc1OC: 7.40
- O=S(=O)(N[C@H]1CC[C@H](N2CCC(c3ccccc3OC3CC3)CC2)CC1)c1ccc(Cl)cc1Cl: 8.62
- O=S(=O)(N[C@H]1CC[C@@H](N2CCC(c3ccccc3OCC(F)(F)F)CC2)CC1)c1cccc(OC(F)F)c1: 8.23
- COc1ccc(S(=O)(=O)N[C@H]2CC[C@@H](N3CCC(c4ccccc4OCCF)CC3)CC2)cc1OC: 8.06
